// reported pKi per item
Target protein (sequence): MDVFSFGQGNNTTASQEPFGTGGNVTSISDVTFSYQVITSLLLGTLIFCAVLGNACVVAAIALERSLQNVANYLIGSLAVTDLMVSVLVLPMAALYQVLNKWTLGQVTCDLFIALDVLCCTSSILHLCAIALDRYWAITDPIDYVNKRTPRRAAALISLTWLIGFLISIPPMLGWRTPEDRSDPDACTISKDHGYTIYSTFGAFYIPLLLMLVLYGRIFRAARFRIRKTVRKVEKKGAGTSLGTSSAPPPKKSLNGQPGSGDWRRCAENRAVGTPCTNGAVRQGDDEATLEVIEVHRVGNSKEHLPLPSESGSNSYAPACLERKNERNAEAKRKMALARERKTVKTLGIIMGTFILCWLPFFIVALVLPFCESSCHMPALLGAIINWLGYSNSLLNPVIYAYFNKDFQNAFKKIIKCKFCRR
pKi: −log10 of the molar value.

1) NCCc1ccc(O)c(O)c1 = < 5.00

Shift focus to the following entry.
In: Need pKi of CC(CN1c2ccccc2Sc2ccccc21)N(C)C (configuration not stated) , thanks.
Out: < 5.00
